Data origin: ChEMBL document CHEMBL1781892

Answer each item with its documented MIC.
- Test system: Aspergillus niger
- MEASUREMENT_PROTOCOL: Antifungal activity against Aspergillus niger using 1 x 10^5 spore/100 uL after 72 hrs by microdilution method
- Format: functional
Numbers only, in ×10⁻² umol.

For orientation, consider the following solved cases.
C/C(=N\NC(=O)C1=C(O)c2ccccc2S(=O)(=O)N1)c1ccc(Br)cc1	96.4
C/C(=N\NC(=O)C1=C(O)c2ccccc2S(=O)(=O)N1C)c1ccccc1Cl	88.6
C/C(=N\NC(=O)C1=C(O)c2ccccc2S(=O)(=O)N1C)c1ccc(I)cc1	91.4
C/C(=N\NC(=O)C1=C(O)c2ccccc2S(=O)(=O)N1C)c1ccc(Cl)c(Cl)c1	75
C/C(=N\NC(=O)C1=C(O)c2ccccc2S(=O)(=O)N1)c1ccc(F)cc1F	76.6

List reported MIC for each of these molecules:
1. c1ccc(-c2ccc(C(c3ccccc3)n3ccnc3)cc2)cc1 (stereo unspecified)
2. C/C(=N\NC(=O)C1=C(O)c2ccccc2S(=O)(=O)N1C)c1ccccc1Br
3. COc1ccc(/C(C)=N/NC(=O)C2=C(O)c3ccccc3S(=O)(=O)N2)cc1
4. C/C(=N\NC(=O)C1=C(O)c2ccccc2S(=O)(=O)N1)c1ccc(Cl)c(Cl)c1

[48, 93.1, 87.3, 75.2]
